# credit: ChEMBL document CHEMBL1146909

A collection of molecules and their measured EC50
study_target: Glutamate receptor 4 (Homo sapiens)
protocol_notes: Activity at human recombinant iGluR4 flip expressed in HEK293 cells measured as change in intracellular calcium ion concentration in presence of glutamate by FLIPR assay
Type: functional, cell-based
endpoint: EC50 (nM)

[[record]]
input_smiles = "CCc1c(C#N)c(-c2ccc(-c3ccccc3C)cc2)c(C(=O)O)n1C"
numeric_result = 790

[[record]]
input_smiles = "CCSc1c(C#N)c(-c2ccc(-c3ccccc3)cc2)c(C(=O)O)n1C"
numeric_result = 619

[[record]]
input_smiles = "CCc1c(C#N)c(-c2ccc(-c3cccc(F)c3)cc2)c(C(=O)O)n1C"
numeric_result = 223

[[record]]
input_smiles = "CCc1c(C#N)c(-c2ccc(-c3ccccc3Cl)cc2)c(C(=O)O)n1C"
numeric_result = 225

[[record]]
input_smiles = "CCc1c(C#N)c(-c2ccc(-c3ccc(C#N)cc3)cc2)c(C(=O)O)n1C"
numeric_result = 373


---

study_target: Glutamate receptor 4 (Homo sapiens)
protocol_notes: Activity at human recombinant iGluR4 flip expressed in HEK293 cells measured as change in intracellular calcium ion concentration in presence of glutamate by FLIPR assay
Assay type: functional, cell-based
A collection of compounds and their measured log10 EC50
endpoint: log10 EC50 (log10 of the value in nM)

[[record]]
input_smiles = "CCc1c(C#N)c(-c2ccc(-c3ccc(C)cc3)cc2)c(C(=O)O)n1C"
endpoint = "log10 EC50"
numeric_result = 3.06

[[record]]
input_smiles = "CCOc1ccccc1-c1ccc(-c2c(C#N)c(CC)n(C)c2C(=O)O)cc1"
endpoint = "log10 EC50"
numeric_result = 2.20

[[record]]
input_smiles = "CCc1c(C#N)c(-c2ccc(-c3ccccc3)cc2)c(C(=O)O)n1C"
endpoint = "log10 EC50"
numeric_result = 2.33

[[record]]
input_smiles = "CCc1c(C#N)c(-c2ccc(-c3cccc(C#N)c3)cc2)c(C(=O)O)n1C"
endpoint = "log10 EC50"
numeric_result = 2.80

[[record]]
input_smiles = "Cn1c(Br)c(C#N)c(-c2ccc(-c3ccccc3)cc2)c1C(=O)O"
endpoint = "log10 EC50"
numeric_result = 2.83

[[record]]
input_smiles = "CCc1c(C#N)c(-c2ccc(-c3cccc(C)c3)cc2)c(C(=O)O)n1C"
endpoint = "log10 EC50"
numeric_result = 3.32

[[record]]
input_smiles = "CSc1sc(C(=O)O)c(-c2ccc(C(C)(C)C)cc2)c1C#N"
endpoint = "log10 EC50"
numeric_result = 2.33

[[record]]
input_smiles = "CSc1c(C#N)c(-c2ccc(-c3ccccc3)cc2)c(C(=O)O)n1C"
endpoint = "log10 EC50"
numeric_result = 2.60

[[record]]
input_smiles = "CCc1c(C#N)c(-c2ccc(-c3ccccc3SC)cc2)c(C(=O)O)n1C"
endpoint = "log10 EC50"
numeric_result = 2.02

[[record]]
input_smiles = "CCc1c(C#N)c(-c2ccc(-c3cccc(OC)c3)cc2)c(C(=O)O)n1C"
endpoint = "log10 EC50"
numeric_result = 3.02


---

study_target: Glutamate receptor 2 (Homo sapiens, UniProt P42262)
Sequence (P42262 whole entry): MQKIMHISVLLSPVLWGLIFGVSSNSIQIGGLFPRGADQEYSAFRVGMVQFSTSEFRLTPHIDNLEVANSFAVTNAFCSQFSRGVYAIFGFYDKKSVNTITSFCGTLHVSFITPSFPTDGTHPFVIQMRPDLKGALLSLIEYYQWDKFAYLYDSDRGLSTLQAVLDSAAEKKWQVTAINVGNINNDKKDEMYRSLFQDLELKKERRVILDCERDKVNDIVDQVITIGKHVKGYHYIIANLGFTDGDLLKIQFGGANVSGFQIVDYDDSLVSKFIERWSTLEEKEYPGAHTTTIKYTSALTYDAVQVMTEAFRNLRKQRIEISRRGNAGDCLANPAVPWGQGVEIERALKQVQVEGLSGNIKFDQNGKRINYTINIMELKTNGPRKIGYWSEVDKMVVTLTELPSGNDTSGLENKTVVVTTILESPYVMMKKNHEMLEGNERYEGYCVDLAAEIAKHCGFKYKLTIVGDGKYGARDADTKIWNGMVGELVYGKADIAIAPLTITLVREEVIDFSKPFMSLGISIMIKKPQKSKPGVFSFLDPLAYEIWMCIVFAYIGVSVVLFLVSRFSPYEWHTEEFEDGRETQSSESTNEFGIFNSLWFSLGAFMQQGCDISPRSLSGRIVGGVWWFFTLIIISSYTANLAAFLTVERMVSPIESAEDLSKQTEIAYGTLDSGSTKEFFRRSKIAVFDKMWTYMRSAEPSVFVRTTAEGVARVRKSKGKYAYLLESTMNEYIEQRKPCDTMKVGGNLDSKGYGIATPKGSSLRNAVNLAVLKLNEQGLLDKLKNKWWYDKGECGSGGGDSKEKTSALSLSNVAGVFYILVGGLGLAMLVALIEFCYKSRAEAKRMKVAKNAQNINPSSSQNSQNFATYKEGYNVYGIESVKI
protocol_notes: Activity at human recombinant iGluR2 flip expressed in HEK293 cells measured as change in intracellular calcium ion concentration in presence of glutamate by FLIPR assay
Type: functional, cell-based
A collection of molecules and their measured EC50
endpoint: EC50

[[record]]
input_smiles = "Cn1cc(C#N)c(-c2ccc(-c3ccccc3)cc2)c1C(=O)O"
result = "> 3 µM"

[[record]]
input_smiles = "CC(C)Sc1c(C#N)c(-c2ccc(-c3ccccc3)cc2)c(C(=O)O)n1C"
result = "> 3 µM"

[[record]]
input_smiles = "Cn1c(Br)c(C#N)c(-c2ccc(-c3ccccc3)cc2)c1C(=O)O"
result = "> 3 µM"


---

study_target: Glutamate receptor 4 (Homo sapiens, UniProt P48058)
Sequence (P48058 whole entry): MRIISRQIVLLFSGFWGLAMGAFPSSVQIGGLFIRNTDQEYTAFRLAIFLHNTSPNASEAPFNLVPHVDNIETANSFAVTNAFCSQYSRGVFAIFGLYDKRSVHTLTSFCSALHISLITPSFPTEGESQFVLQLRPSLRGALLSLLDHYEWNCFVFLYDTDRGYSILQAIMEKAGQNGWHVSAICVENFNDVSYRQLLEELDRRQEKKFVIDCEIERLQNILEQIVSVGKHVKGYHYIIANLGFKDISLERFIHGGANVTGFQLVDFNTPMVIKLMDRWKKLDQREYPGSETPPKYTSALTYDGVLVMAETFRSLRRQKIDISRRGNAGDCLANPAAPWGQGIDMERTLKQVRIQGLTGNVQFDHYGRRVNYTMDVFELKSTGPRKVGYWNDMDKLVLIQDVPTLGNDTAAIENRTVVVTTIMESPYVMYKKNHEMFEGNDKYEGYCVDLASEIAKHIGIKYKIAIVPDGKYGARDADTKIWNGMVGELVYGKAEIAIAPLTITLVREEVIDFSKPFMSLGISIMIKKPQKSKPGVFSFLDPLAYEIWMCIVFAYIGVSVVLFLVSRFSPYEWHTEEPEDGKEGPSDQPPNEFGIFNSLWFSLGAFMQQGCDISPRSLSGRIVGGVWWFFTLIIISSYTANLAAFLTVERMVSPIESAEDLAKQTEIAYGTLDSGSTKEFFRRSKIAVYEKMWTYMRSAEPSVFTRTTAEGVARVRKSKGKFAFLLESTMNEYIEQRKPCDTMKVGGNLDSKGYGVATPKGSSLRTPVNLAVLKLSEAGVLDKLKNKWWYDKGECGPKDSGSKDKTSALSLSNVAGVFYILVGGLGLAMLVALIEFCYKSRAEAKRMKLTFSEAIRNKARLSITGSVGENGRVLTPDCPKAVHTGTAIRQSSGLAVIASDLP
protocol_notes: Activity at human recombinant iGluR4 flop expressed in HEK293 cells measured as change in intracellular calcium ion concentration in presence of glutamate by FLIPR assay
Assay type: functional, cell-based
A collection of compounds and their measured EC50
endpoint: EC50

[[record]]
input_smiles = "CCc1c(C#N)c(-c2ccc(-c3ccccc3SC)cc2)c(C(=O)O)n1C"
result = "0.077 µM"

[[record]]
input_smiles = "CCc1c(C#N)c(-c2ccc(-c3cccc(C)c3)cc2)c(C(=O)O)n1C"
result = "> 3 µM"

[[record]]
input_smiles = "Cn1cc(C#N)c(-c2ccc(-c3ccccc3)cc2)c1C(=O)O"
result = "> 3 µM"

[[record]]
input_smiles = "CCc1c(C#N)c(-c2ccc(-c3ccc(C#N)cc3)cc2)c(C(=O)O)n1C"
result = "> 3 µM"

[[record]]
input_smiles = "CCc1c(C#N)c(-c2ccc(-c3ccc(Cl)cc3)cc2)c(C(=O)O)n1C"
result = "> 3 µM"

[[record]]
input_smiles = "CCc1c(C#N)c(-c2ccc(-c3ccc(OC)cc3)cc2)c(C(=O)O)n1C"
result = "> 3 µM"

[[record]]
input_smiles = "CCOc1ccccc1-c1ccc(-c2c(C#N)c(CC)n(C)c2C(=O)O)cc1"
result = "0.146 µM"

[[record]]
input_smiles = "CCc1c(C#N)c(-c2ccc(-c3cccc(OC)c3)cc2)c(C(=O)O)n1C"
result = "> 3 µM"

